Experiment: Assessment of Plasma Exposure in DBA/2J mice
Format: in vivo, mouse
Conditions: male, DBA/2J, mouse, plasma, po, 100 mg/kg, Group 4: 100 mg/kg PO, Vehicle 2 (Solubilized Lipid); mouse plasma
VALUE_KIND: half-life (h)
// units = h; emit number, no label

I would be grateful if you could share the reported half-life for `COCCNc1nc(-c2nccn2C)nc2sc(-c3cccc(OC)c3Cl)c(-c3ccccc3)c12` . 2.3

* * *

Target: KRas Q61H mutant (Homo sapiens (Human), UniProt P01116, Q61H)
Sequence (P01116 other isoform, or with tags, fused parts or gaps Q61H): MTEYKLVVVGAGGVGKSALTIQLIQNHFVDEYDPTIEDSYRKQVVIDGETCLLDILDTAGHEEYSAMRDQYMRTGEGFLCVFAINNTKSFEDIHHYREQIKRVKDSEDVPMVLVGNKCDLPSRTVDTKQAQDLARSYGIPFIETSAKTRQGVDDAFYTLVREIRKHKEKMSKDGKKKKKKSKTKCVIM
Assay: Ras GTP Binding Domain Inhibition Assay, KRas Q61H mutant
Conditions: 20 μM; + SOS; read-out: KRas Q61H mutant + SOS: % inh.
Overview of reported inhibition at 20 µM across a group of molecules:

Examples from the recorded data:
COc1cccc(Nc2nc(-c3nccn3C)nc3sc(-c4ccn(C(C)C)n4)c(C)c23)n1
46 to 75%
COCCNc1nc(-c2cn(C)cn2)nc2sc(-c3cccc(OC)c3Cl)c(-c3ccc(OC)cc3)c12
76 to 100%
CO[C@H]1CC[C@@H](Nc2nc(-c3nccn3C)nc3sc(-c4ccn(C(C)C)n4)c(C)c23)C1 (racemic)
76 to 100%
Cc1c(-c2ccn(C(C)C)n2)sc2nc(-c3nccn3C)nc(NCC3COCCN3C)c12 (racemic)
76 to 100%
COCCO[C@H]1CC[C@@H](Nc2nc(-c3nccn3C)nc3sc(-c4ccn(C(C)C)n4)c(C)c23)C1 (racemic)
76 to 100%

I would be grateful if you could share the reported inhibition at 20 µM for `COCCCCn1c(-c2nccn2C)nc2sc(-c3ccn(C(C)C)n3)c(C)c2c1=O` . 1 to 25%

I would be grateful if you could share the reported inhibition at 20 µM for `COCCNc1nc(-c2nccn2C)nc2sc(-c3cccc(OC)c3Cl)c(-c3ccccc3)c12` . 76 to 100%

I would be grateful if you could share the reported inhibition at 20 µM for COc1cccc(-c2sc3nc(-c4nccn4C)nc(N[C@@H]4CC[C@@H](OC)C4)c3c2C)c1F (racemic) . 76 to 100%

I would be grateful if you could share the reported inhibition at 20 µM for `COCCCOc1nc(-c2nccn2C)nc2sc(-c3ccn(C(C)C)n3)c(-c3ccccc3)c12` . 0%

I would be grateful if you could share the reported inhibition at 20 µM for `COCCNc1nc(-c2nccn2C)nc2sc(-c3cccc(OC)c3Cl)c(-c3ccc(OC)cc3)c12` . 76 to 100%

I would be grateful if you could share the reported inhibition at 20 µM for `COc1cccc(-c2sc3nc(-c4nccn4C)nc(N[C@H]4C[C@H](OC)C4)c3c2C)c1F` . 76 to 100%

I would be grateful if you could share the reported inhibition at 20 µM for `COCCCCOc1nc(-c2nccn2C)nc2sc(-c3ccn(C(C)C)n3)c(C)c12` . 1 to 25%

I would be grateful if you could share the reported inhibition at 20 µM for `COc1cc(-c2sc3nc(-c4nccn4C)nc(N[C@H]4C[C@H](OC)C4)c3c2-c2ccccc2)ccn1` . 76 to 100%

I would be grateful if you could share the reported inhibition at 20 µM for COc1cccc(-c2sc3nc(-c4nccn4C)nc(N[C@@H]4CC[C@@H](OC)C4)c3c2-c2ccccc2)c1F (racemic) . 76 to 100%

I would be grateful if you could share the reported inhibition at 20 µM for `Cc1c(-c2ccn(C(C)C)n2)sc2nc(-c3nccn3C)nc(NCCN3CCOCC3)c12` . 76 to 100%
